- measurementTarget: T1, matriptase (Charles Craik, UCSF), recombinant (Homo sapiens (Human)) (UniProt Q9Y5Y6)
- T1 sequence: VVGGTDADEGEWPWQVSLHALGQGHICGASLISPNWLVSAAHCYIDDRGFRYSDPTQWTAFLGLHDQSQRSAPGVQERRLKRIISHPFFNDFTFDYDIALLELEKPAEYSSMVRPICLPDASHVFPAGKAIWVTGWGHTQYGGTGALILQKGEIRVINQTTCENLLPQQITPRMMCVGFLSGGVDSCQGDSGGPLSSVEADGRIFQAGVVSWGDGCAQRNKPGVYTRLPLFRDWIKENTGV
*: point of attachment. kt = C-terminal ketothiazole, c1csc(*)n1
measureName: IC50 of enzyme inhibition (nM)
Entry rule: numbers only, all in nM.

Previously resolved entries follow.
binder	IC50 of enzyme inhibition, nM
Ac-RQLR-kt (SMILES CC(=O)N[C@@H](CCCNC(=N)N)C(=O)N[C@@H](CCC(N)=O)C(=O)N[C@@H](CC(C)C)C(=O)N[C@@H](CCCNC(=N)N)C(=O)c1nccs1) [Ac-RQLR(SEQ ID NO: 6)-kt]	1
Ac-WQLR-kt (SMILES CC(=O)N[C@@H](Cc1c[nH]c2ccccc12)C(=O)N[C@@H](CCC(N)=O)C(=O)N[C@@H](CC(C)C)C(=O)N[C@@H](CCCNC(=N)N)C(=O)c1nccs1) [Ac-WQLR(SEQ ID NO: 3)-kt]	49
Ac-SRLR-kt (SMILES CC(=O)N[C@@H](CO)C(=O)N[C@@H](CCCNC(=N)N)C(=O)N[C@@H](CC(C)C)C(=O)N[C@@H](CCCNC(=N)N)C(=O)c1nccs1) [Ac-SRLR(SEQ ID NO: 15)-kt]	24

// next item, IC50 of enzyme inhibition requested
Input Ac-WRLR-kt (SMILES CC(=O)N[C@@H](Cc1c[nH]c2ccccc12)C(=O)N[C@@H](CCCNC(=N)N)C(=O)N[C@@H](CC(C)C)C(=O)N[C@@H](CCCNC(=N)N)C(=O)c1nccs1) [Ac-WRLR(SEQ ID NO: 9)-kt] . Output IC50 of enzyme inhibition: 31
